Below, each entry is listed with its recorded relative viability.
# Test system: Calu-6
# procedure-text: relative viability (nuclei count vs DMSO), 5 days (fraction); higher = more cells survive
# measurement-parameters: first compound 0.253 µM
Format: numeric value only, no unit, no commentary.

Completed entries (count: 3):
C=C1C(=O)O[C@@H](CCCCCCCC)[C@@H]1C(=O)O [C-75] + CS(=O)(=O)CCNCc1ccc(-c2ccc3ncnc(Nc4ccc(OCc5cccc(F)c5)c(Cl)c4)c3c2)o1 [Lapatinib] (partner 2 µM) yielded relative viability of 1.06

Oc1nc(-c2ccc(C(F)(F)F)cc2)nc2c1CSCC2 [XAV939] + COc1cc2c(Oc3ccc(NC(=O)C4(C(=O)Nc5ccc(F)cc5)CC4)cc3F)ccnc2cc1OCCCN1CCOCC1 [Foretinib] (partner 0.25 µM) yielded relative viability of 0.704

Oc1nc(-c2ccc(C(F)(F)F)cc2)nc2c1CSCC2 [XAV939] + CS(=O)(=O)CCNCc1ccc(-c2ccc3ncnc(Nc4ccc(OCc5cccc(F)c5)c(Cl)c4)c3c2)o1 [Lapatinib] (partner 2 µM) yielded relative viability of 0.945

Continuing:
Oc1nc(-c2ccc(C(F)(F)F)cc2)nc2c1CSCC2 [XAV939] + CC1(C)CCC(c2ccc(Cl)cc2)=C(CN2CCN(c3ccc(C(=O)NS(=O)(=O)c4ccc(N[C@H](CCN5CCOCC5)CSc5ccccc5)c(S(=O)(=O)C(F)(F)F)c4)cc3)CC2)C1 [Navitoclax] (partner 0.5 µM) yielded relative viability of 0.779
